- System: Artemia salina L. larvae
- experimental_details: brine shrimp lethality test (BSLT)
- Format: in vivo
- conditions_used: Artemia salina larvae, 24 h, probit analysis
parameter: LD50 (BSLT)

>>> measured_value("C=C(C)[C@@H]1CCC(C)C(=O)C1=Cc1cccc(O)c1 (stereo partly drawn)")
"890 µg/mL"
>>> measured_value("C=C(C)[C@@H]1CCC(C)C(=O)C1=Cc1ccc2c(c1)OCO2 (stereo partly drawn)")
"910 µg/mL"
>>> measured_value("C=C(C)[C@@H]1CCC(C)C(=O)C1=Cc1ccccc1 (stereo partly drawn)")
">1000 µg/mL"
>>> measured_value("C=C(C)[C@@H]1CCC(C)C(=O)C1=Cc1ccc(O)cc1 (stereo partly drawn)")
"847 µg/mL"
>>> measured_value("C=C(C)[C@@H]1CCC(C)C(=O)C1 (stereo partly drawn) [Compound 1, Dihydrocarvone]")
"550 µg/mL"
>>> measured_value("C=C(C)[C@@H]1CCC(C)C(=O)C1=Cc1ccc(OC)cc1 (stereo partly drawn)")
">1000 µg/mL"
>>> measured_value("C=C(C)[C@@H]1CCC(C)C(=O)C1=Cc1ccc(OC)c(OC)c1 (stereo partly drawn)")
"954 µg/mL"
>>> measured_value("C=C(C)[C@@H]1CCC(C)C(=O)C1=Cc1ccccc1OC (stereo partly drawn)")
">1000 µg/mL"
>>> measured_value("C=C(C)[C@@H]1CCC(C)C(=O)C1=Cc1cccc(OC)c1 (stereo partly drawn)")
">1000 µg/mL"
